Recorded measurements of solubility at 24 h, one per entry
- protocol: Solubility measurement (DMSO solution method), McIlvaine buffer pH 4.5 or 6.8
- Assay type: physicochemical
- condition.details: aqueous buffer, kinetic from dmso stock; McIlvaine buffer pH 6.8; DMSO stock diluted to 250 μM; 24 h shaking at ambient temperature; read-out: solubility pH 6.8
recorded.endpoint: solubility at 24 h (µg/mL)

>>> print(df.to_string())
                         structure_as_smiles  value_relation_sign  measured_result
 0  C[C@H](Oc1cc(N2CCOC2=O)nc(-c2noc3c2CCC[C@@]32CCCc3sc(N)c(C#N)c32)n1)[C@@H]1CCCN1C                    =               91
 1  CO[C@H]1CCN(C)[C@@H]1[C@H](C)Oc1cc(-n2ccc(CC(=O)NC(C)C)n2)nc(-c2noc3c2CCC[C@@]32CCCc3sc(N)c(C#N)c32)n1                    =                4
 2  C[C@H](Oc1cc(-c2ccn(C)n2)nc(-c2noc3c2CCC[C@@]32CCCc3sc(N)c(C#N)c32)n1)[C@@H]1CCCN1C                    =                2
 3  C[C@H](Oc1cc(-c2cn(C)nn2)nc(-c2onc3c2CCC[C@@]32CCCc3sc(N)c(C#N)c32)n1)[C@@H]1CCCN1C                    =               82
 4  C[C@H](Oc1cc(-n2cncn2)nc(-c2noc3c2CCC[C@@]32CCCc3sc(N)c(C#N)c32)n1)[C@@H]1CCCN1C                    =               94
 5  C[C@@H]1CN(c2cc(O[C@@H](C)[C@@H]3CCCN3C)nc(-c3noc4c3CCC[C@@]43CCCc4sc(N)c(C#N)c43)n2)C[C@H](C)N1                    >              140
 6  C[C@@H]1CN(c2nc(-c3noc4c3CCC[C@@]43CCCc4sc(N)c(C#N)c43)nc(O[C@@H](C)[C@@H]3C[C@@H](F)CN3C)c2F)CC2(CC2)N1                    <                1
 7  CC(=O)N1CCN(c2cc(O[C@@H](C)[C@@H]3CCCN3C)nc(-c3noc4c3CCC[C@@]43CCCc4sc(N)c(C#N)c43)n2)CC12CC2                    =              110
 8  C[C@H](Oc1cc(C2=CCNCC2)nc(-c2noc3c2CCC[C@@]32CCCc3sc(N)c(C#N)c32)n1)[C@@H]1CCCN1C                    >              137
 9  C[C@H](Oc1cc(-c2cn(C3COC3)nn2)nc(-c2noc3c2CCC[C@@]32CCCc3sc(N)c(C#N)c32)n1)[C@@H]1CCCN1C                    =               57
10  C[C@H](Oc1cc(-n2ccc(C(=O)NC3COC3)n2)nc(-c2noc3c2CCC[C@@]32CCCc3sc(N)c(C#N)c32)n1)[C@@H]1CCCN1C                    =               73
11  C[C@H](Oc1cc(-n2cncc3ccnc2-3)nc(-c2onc3c2CCC[C@@]32CCCc3sc(N)c(C#N)c32)n1)[C@@H]1CCCN1C                    <                1
12  C[C@H](Oc1cc(-n2ccc(-c3cn(C4CCOCC4)nn3)n2)nc(-c2noc3c2CCC[C@@]32CCCc3sc(N)c(C#N)c32)n1)[C@@H]1CCCN1C                    <                1
13  C[C@H](Oc1cc(-n2ccc(C(=O)N(C)C3COC3)n2)nc(-c2noc3c2CCC[C@@]32CCCc3sc(N)c(C#N)c32)n1)[C@@H]1CCCN1C                    =               31
14  COC(=O)c1ccc(-c2cc(O[C@@H](C)[C@@H]3CCCN3C)nc(-c3noc4c3CCC[C@@]43CCCc4sc(N)c(C#N)c43)n2)o1                    <                1
15  CO[C@H]1CCN(C)[C@@H]1[C@H](C)Oc1cc(-n2ccc(CC(=O)NC(C)C)n2)nc(-c2onc3c2CCC[C@@]32CCCc3sc(N)c(C#N)c32)n1                    =                7
16  C[C@H](Oc1cc(-n2cc3ccn(C[C@H]4CCOC4)c(=O)c3n2)nc(-c2noc3c2CCC[C@@]32CCCc3sc(N)c(C#N)c32)n1)[C@@H]1CCCN1C                    =                5
17  CCOC(=O)c1ccn(-c2cc(O[C@@H](C)[C@@H]3CCCN3C)nc(-c3noc4c3CCC[C@@]43CCCc4sc(N)c(C#N)c43)n2)n1                    <                1
18  C[C@H](Oc1cc(-c2ccn(C[C@@H](C)O)n2)nc(-c2noc3c2CCC[C@@]32CCCc3sc(N)c(C#N)c32)n1)[C@@H]1CCCN1C                    >              147
19  CO[C@@H]1C[C@@H]([C@H](C)Oc2cc(-c3ccn(C)n3)nc(-c3noc4c3CCC[C@@]43CCCc4sc(N)c(C#N)c43)n2)N(C)C1                    <                1
20  COCCNC(=O)c1ccn(-c2cc(O[C@@H](C)[C@@H]3[C@@H](OC)CCN3C)nc(-c3onc4c3CCC[C@@]43CCCc4sc(N)c(C#N)c43)n2)n1                    =                5
21  C[C@H](Oc1cc(N2CC(N(C)C)C2)nc(-c2noc3c2CCC[C@@]32CCCc3sc(N)c(C#N)c32)n1)[C@@H]1CCCN1C                    >              134
22  C[C@H](Oc1cc(-c2ccn(C3CC3)n2)nc(-c2noc3c2CCC[C@@]32CCCc3sc(N)c(C#N)c32)n1)[C@@H]1CCCN1C                    <                1
23  CO[C@@H]1C[C@@H]([C@H](C)Oc2cc(-c3ccn(C4COC4)n3)nc(-c3noc4c3CCC[C@@]43CCCc4sc(N)c(C#N)c43)n2)N(C)C1                    <                1
24  C[C@H](Oc1cc(-c2cc[nH]n2)nc(-c2noc3c2CCC[C@@]32CCCc3sc(N)c(C#N)c32)n1)[C@@H]1CCCN1C                    =               82

====

Recorded measurements of pIC50, one per entry
- Test system: SAS cells
- protocol: SAS CTG proliferation assay (120 h) (HNSCC, wt amplified)
- Format: cell-based
pIC50: −log10 of the molar value.
recorded.endpoint: pIC50

                                   compound  system_under_test  measured_result
0  C[C@H](Oc1cc(N2C[C@@H]3[C@@H](N)[C@@H]3C2)nc(-c2noc3c2CCC[C@@]32CCCc3sc(N)c(C#N)c32)n1)[C@@H]1CCCN1C [II-167]          SAS cells             5.86
1  C[C@H](Oc1cc([C@@H]2CCOC2)nc(-c2noc3c2CCC[C@@]32CCCc3sc(N)c(C#N)c32)n1)[C@@H]1CCCN1C [II-94]          SAS cells             7.09
2  Cc1nc(-c2cc(O[C@@H](C)[C@@H]3CCCN3C)nc(-c3onc4c3CCC[C@@]43CCCc4sc(N)c(C#N)c43)n2)cs1 [I-24]          SAS cells             7.11
3  C[C@H](Oc1cc(N2CCN[C@@H](C)C2)nc(-c2noc3c2CCC[C@@]32CCCc3sc(N)c(C#N)c32)n1)[C@@H]1CCCN1C [II-162]          SAS cells             5.67
4  C[C@H](Oc1cc(N2CCC[C@@H](O)C2)nc(-c2noc3c2CCC[C@@]32CCCc3sc(N)c(C#N)c32)n1)[C@@H]1CCCN1C [II-59]          SAS cells             7.51
5  C[C@H](Oc1cc(-n2cncn2)nc(-c2onc3c2CCC[C@@]32CCCc3sc(N)c(C#N)c32)n1)[C@@H]1CCCN1C [I-18]          SAS cells             7.14
